List of inhibition values.
Target: Cyclin-dependent kinase 7/ cyclin H (Homo sapiens) (UniProt P51946+P50613)
Experiment: Inhibition of human CDK7/cyclinH/MAT1 at 0.1 uM after 40 mins relative to control
Format: protein-complex assay
Numbers only; they are read as %.

Guide cases for inhibition, answers given:
>  <chemical-smiles>
CC(C)[C@H](CO)Nc1nc(Nc2ccc(C(=O)NCCNS(=O)(=O)c3cccc4c(N(C)C)cccc34)c(Cl)c2)c2ncn(C(C)C)c2n1

>  <inhibition (%)>
69

$$$$
>  <chemical-smiles>
CC[C@H](CO)Nc1nc(NCc2ccccc2)c2ncn(C(C)C)c2n1

>  <inhibition (%)>
26

$$$$
>  <chemical-smiles>
CC[C@H](CO)Nc1nc(Nc2ccc(C(=O)NCCNS(=O)(=O)c3cccc4c(N(C)C)cccc34)c(Cl)c2)c2ncn(C(C)C)c2n1

>  <inhibition (%)>
57

$$$$

Asked: Requested field: inhibition. Item: `CC(C)[C@H](CO)Nc1nc(Nc2ccc(C(=O)O)c(Cl)c2)c2ncn(C(C)C)c2n1`
Given back: 66

----------
List of inhibition values.
Biological target: CDK9/cyclin T1 (Homo sapiens) (UniProt O60563+P50750)
Assay: Inhibition of at human CDK9/cyclin T1 at 0.1 uM after 40 mins relative to control
Format: protein-complex assay
Numbers only; they are read as %.

Guide cases for inhibition, answers given:
>  <chemical-smiles>
CC(C)[C@H](CO)Nc1nc(Nc2ccc(C(=O)NCCNS(=O)(=O)c3cccc4c(N(C)C)cccc34)c(Cl)c2)c2ncn(C(C)C)c2n1

>  <units>
%

>  <inhibition>
67

$$$$
>  <chemical-smiles>
CC[C@H](CO)Nc1nc(NCc2ccccc2)c2ncn(C(C)C)c2n1

>  <units>
%

>  <inhibition>
19

$$$$
>  <chemical-smiles>
CC(C)[C@H](CO)Nc1nc(Nc2ccc(C(=O)O)c(Cl)c2)c2ncn(C(C)C)c2n1

>  <units>
%

>  <inhibition>
22

$$$$

Now take the following compound into account.
Asked: Requested field: inhibition. Item: `CC[C@H](CO)Nc1nc(Nc2ccc(C(=O)NCCNS(=O)(=O)c3cccc4c(N(C)C)cccc34)c(Cl)c2)c2ncn(C(C)C)c2n1`
Given back: 44

----------
List of pIC50 values.
Test system: MDA-MB-231
Assay: Antiproliferative activity against estrogen receptor-deficient human MDA-MB-231 cells after 48 hrs by WST-1 assay
Format: functional, cell-based
Settings: MDA-MB-231, 48 h
// pIC50: -log10(molar conc.)

Guide cases for pIC50, answers given:
>  <chemical-smiles>
CC[C@H](CO)Nc1nc(Nc2ccc(C(=O)NCCNS(=O)(=O)c3cccc4c(N(C)C)cccc34)c(Cl)c2)c2ncn(C(C)C)c2n1

>  <pIC50>
5.31

$$$$
>  <chemical-smiles>
CC(C)[C@H](CO)Nc1nc(Nc2ccc(C(=O)NCCNS(=O)(=O)c3cccc4c(N(C)C)cccc34)c(Cl)c2)c2ncn(C(C)C)c2n1

>  <pIC50>
5.39

$$$$

Now take the following compound into account.
Asked: Requested field: pIC50. Item: `CC[C@H](CO)Nc1nc(NCc2ccccc2)c2ncn(C(C)C)c2n1`
Given back: 4.26

----------
Assay: Antiproliferative activity against human CL 10.3 cells expressing p-glycoprotein after 72 hrs by WST-1 assay
Type: functional, cell-based
measure: IC50 (µM)
Numbers only; they are read as µM.

Asked: Requested field: IC50. Item: `CC(C)[C@H](CO)Nc1nc(Nc2ccc(C(=O)NCCNS(=O)(=O)c3cccc4c(N(C)C)cccc34)c(Cl)c2)c2ncn(C(C)C)c2n1`
Given back: 44.1
